Tgt: JAK-3 (Homo sapiens (Human))
Measurement notes: Inhibition test on JAK-3 kinase (FRET peptide substrate assay)
Assay type: biochemical
Test context: kinase 1 nM, 1 h at room temperature; read-out: IC50 (nM) JAK-3
Rule: IC50 below 1 nM gives MET. Equal to or above 1 nM gives NOT MET.

QUERY: Hello, I'm reviewing records and need to know if IC50 of C=CC(=O)Nc1ccc(Cn2ncc3cnc(Nc4ccc(N5CCN(C)CC5)cc4)nc32)cc1 [Example 21] is below 1 nM. Could you check?
RESULT: MET

---

Listed below: IC50 values for each entry.
Tgt: JAK-1 (Homo sapiens (Human), UniProt P23458)
Sequence (P23458 whole entry): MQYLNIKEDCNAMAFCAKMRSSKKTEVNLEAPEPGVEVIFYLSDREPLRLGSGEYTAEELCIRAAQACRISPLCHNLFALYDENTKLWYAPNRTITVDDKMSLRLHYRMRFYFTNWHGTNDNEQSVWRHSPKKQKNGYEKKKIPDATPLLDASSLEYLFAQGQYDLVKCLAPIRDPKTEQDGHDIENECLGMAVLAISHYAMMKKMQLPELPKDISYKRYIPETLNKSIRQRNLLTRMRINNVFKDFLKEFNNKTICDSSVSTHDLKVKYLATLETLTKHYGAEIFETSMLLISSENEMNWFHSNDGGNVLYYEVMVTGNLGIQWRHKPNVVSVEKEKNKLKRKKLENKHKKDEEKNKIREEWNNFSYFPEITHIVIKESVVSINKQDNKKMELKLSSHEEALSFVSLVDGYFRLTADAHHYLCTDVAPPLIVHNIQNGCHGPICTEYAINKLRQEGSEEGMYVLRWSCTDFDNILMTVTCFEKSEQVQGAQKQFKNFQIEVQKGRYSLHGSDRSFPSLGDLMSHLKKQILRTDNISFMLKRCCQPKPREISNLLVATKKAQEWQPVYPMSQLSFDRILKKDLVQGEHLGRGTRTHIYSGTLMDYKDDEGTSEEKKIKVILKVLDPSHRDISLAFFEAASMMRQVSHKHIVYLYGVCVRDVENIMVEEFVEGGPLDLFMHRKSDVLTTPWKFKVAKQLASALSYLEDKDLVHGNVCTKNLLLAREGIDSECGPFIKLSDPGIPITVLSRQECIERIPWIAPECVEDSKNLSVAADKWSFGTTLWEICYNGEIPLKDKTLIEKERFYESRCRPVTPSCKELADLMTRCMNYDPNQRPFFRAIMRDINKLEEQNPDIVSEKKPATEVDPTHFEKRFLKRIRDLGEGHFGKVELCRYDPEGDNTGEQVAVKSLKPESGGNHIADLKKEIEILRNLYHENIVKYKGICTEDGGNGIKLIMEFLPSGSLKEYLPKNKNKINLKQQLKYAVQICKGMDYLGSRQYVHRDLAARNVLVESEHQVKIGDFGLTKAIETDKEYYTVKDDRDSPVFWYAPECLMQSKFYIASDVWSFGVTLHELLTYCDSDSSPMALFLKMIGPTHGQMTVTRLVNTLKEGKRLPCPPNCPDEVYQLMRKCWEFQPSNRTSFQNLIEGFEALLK
Measurement notes: Inhibition test on JAK-1 kinase (FRET peptide substrate assay)
Assay type: biochemical
Test context: kinase 1 nM, 1 h at room temperature
Entry format: amount then unit.

QUERY: Item `C/C=C/C(=O)Nc1cccc(Cn2ncc3cnc(Nc4ccc(N5CCN(C)CC5)cc4)nc32)c1` has what recorded IC50?
RESULT: 274 nM

QUERY: Item `C=CC(=O)Nc1cccc(Cn2ncc3cnc(Nc4cnn(C)c4)nc32)c1` has what recorded IC50?
RESULT: 1390 nM

QUERY: Item `C=CC(=O)Nc1ccc(Cn2ncc3cnc(Nc4cnn(C)c4)nc32)cc1` has what recorded IC50?
RESULT: 1410 nM

---

Tgt: JAK-2 (Homo sapiens (Human), UniProt O60674)
Sequence (O60674 whole entry): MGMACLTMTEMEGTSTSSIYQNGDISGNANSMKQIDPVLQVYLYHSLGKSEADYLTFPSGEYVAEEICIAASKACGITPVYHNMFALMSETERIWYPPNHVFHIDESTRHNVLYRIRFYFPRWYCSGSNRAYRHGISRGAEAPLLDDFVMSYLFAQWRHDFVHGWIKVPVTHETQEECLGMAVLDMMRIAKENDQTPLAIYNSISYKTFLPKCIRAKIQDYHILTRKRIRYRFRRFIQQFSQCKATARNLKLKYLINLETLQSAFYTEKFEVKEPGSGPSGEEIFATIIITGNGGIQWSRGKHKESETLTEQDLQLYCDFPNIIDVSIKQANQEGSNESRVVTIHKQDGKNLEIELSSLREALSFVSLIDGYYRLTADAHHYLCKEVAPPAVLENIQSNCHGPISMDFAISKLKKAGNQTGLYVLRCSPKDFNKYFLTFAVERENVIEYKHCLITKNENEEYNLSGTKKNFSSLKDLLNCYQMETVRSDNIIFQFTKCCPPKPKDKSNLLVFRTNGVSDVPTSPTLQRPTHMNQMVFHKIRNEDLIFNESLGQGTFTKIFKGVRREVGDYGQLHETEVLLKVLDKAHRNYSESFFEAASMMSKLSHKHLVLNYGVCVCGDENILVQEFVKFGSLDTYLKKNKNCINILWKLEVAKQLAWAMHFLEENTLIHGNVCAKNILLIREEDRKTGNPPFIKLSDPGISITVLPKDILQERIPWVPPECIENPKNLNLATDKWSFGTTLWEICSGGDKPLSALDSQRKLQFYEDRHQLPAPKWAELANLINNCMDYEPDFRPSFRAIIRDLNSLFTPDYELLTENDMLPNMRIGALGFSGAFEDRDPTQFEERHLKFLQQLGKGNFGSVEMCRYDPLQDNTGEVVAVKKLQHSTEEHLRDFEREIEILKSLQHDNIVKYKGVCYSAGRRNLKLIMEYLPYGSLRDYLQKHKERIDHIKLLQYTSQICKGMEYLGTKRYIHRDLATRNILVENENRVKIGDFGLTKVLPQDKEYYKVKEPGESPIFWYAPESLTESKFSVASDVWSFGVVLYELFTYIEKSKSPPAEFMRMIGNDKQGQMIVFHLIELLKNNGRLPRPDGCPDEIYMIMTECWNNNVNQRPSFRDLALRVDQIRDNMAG
Measurement notes: Inhibition test on JAK-2 kinase (FRET peptide substrate assay)
Type: biochemical
Test context: kinase 1 nM, 1 h at room temperature
Listed below: IC50 values for each entry.
Entry format: amount then unit.

Some compounds with known IC50 results, for comparison:
QUERY: Item C/C=C/C(=O)Nc1cccc(Cn2ncc3cnc(Nc4cnn(CCO)c4)nc32)c1 [Example 10] has what recorded IC50?
RESULT: 960 nM

QUERY: Item C=CC(=O)Nc1ccc(Cn2ncc3cnc(Nc4ccccc4)nc32)cc1 [Example 18] has what recorded IC50?
RESULT: 1280 nM

# context switch: different compound, same IC50
QUERY: Item C/C=C/C(=O)Nc1cccc(Cn2ncc3cnc(Nc4ccc(F)cc4)nc32)c1 [Example 12] has what recorded IC50?
RESULT: 2310 nM

---

Listed below: IC50 values for each entry.
Tgt: JAK-3 (Homo sapiens (Human), UniProt P52333)
Sequence (P52333 whole entry): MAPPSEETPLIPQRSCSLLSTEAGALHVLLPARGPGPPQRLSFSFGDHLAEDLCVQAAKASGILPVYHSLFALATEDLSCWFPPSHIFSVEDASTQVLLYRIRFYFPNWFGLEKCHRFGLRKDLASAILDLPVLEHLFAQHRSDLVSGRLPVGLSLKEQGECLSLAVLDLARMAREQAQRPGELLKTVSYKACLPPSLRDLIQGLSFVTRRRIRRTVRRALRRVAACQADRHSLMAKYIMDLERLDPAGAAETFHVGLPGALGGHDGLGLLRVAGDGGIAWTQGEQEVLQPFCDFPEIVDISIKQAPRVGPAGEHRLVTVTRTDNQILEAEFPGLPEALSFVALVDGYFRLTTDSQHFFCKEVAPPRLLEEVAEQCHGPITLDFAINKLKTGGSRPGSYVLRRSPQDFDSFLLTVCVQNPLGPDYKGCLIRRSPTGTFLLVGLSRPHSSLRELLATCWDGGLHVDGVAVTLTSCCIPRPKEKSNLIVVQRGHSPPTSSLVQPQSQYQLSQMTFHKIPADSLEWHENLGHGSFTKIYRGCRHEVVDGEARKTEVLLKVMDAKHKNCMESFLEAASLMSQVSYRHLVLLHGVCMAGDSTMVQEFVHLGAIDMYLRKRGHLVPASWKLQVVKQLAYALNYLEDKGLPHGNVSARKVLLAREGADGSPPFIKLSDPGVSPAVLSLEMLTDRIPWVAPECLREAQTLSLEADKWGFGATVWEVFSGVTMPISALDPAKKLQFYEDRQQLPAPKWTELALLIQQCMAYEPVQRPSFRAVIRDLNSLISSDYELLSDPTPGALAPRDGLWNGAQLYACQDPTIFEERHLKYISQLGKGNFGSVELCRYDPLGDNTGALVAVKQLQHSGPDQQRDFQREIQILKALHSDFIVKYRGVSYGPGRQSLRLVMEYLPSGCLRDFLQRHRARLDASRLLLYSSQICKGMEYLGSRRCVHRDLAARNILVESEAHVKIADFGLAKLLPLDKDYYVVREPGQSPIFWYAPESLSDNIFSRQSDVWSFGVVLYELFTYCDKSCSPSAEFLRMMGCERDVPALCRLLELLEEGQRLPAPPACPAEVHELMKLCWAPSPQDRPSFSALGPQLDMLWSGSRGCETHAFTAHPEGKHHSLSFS
Measurement notes: Inhibition test on JAK-3 kinase (FRET peptide substrate assay)
Assay type: biochemical
Test context: kinase 1 nM, 1 h at room temperature; read-out: IC50 (nM) JAK-3
Text: Experiment Example (Inhibition Tests on JAK-1, JAK-2 and JAK-3 Kinases) To evaluate the inhibitory activity of the compound on JAK-1, JAK-2 and JAK-3 kinases A proteolytic enzyme is coupled to exert different proteolysis on a specific phosphorylated and nonphosphorylated peptide substrate based on fluorescence resonance energy transfer (FRET). […]
Value expressed in nM; do not type the unit.

QUERY: Item `C/C=C/C(=O)Nc1ccc(Cn2ncc3cnc(Nc4ccc(F)cc4)nc32)cc1` has what recorded IC50?
RESULT: 0.3

New cases:
QUERY: Item `C=CC(=O)Nc1cccc(Cn2ncc3cnc(Nc4cnn(CCOC)c4)nc32)c1` has what recorded IC50?
RESULT: 1.4

QUERY: Item `C/C=C/C(=O)Nc1cccc(Cn2ncc3cnc(Nc4ccccc4)nc32)c1` has what recorded IC50?
RESULT: 1.4

QUERY: Item `C/C=C/C(=O)Nc1ccc(Cn2ncc3cnc(Nc4ccc(N5CCN(C)CC5)cc4)nc32)cc1` has what recorded IC50?
RESULT: 2.3

QUERY: Item `C=CC(=O)Nc1cccc(Cn2ncc3cnc(Nc4ccccc4)nc32)c1` has what recorded IC50?
RESULT: 1.1

QUERY: Item `C/C=C/C(=O)Nc1ccc(Cn2ncc3cnc(Nc4ccc(N5CCOCC5)cc4)nc32)cc1` has what recorded IC50?
RESULT: 2

QUERY: Item `C/C=C/C(=O)Nc1ccc(Cn2ncc3cnc(Nc4ccccc4)nc32)cc1` has what recorded IC50?
RESULT: 1.2

QUERY: Item `C/C=C/C(=O)Nc1ccc(Cn2ncc3cnc(Nc4cnn(CCOC)c4)nc32)cc1` has what recorded IC50?
RESULT: 2

QUERY: Item `C/C=C/C(=O)Nc1cccc(Cn2ncc3cnc(Nc4ccc(N5CCOCC5)cc4)nc32)c1` has what recorded IC50?
RESULT: 0.4

---

Listed below: IC50 values for each entry.
Tgt: JAK-2 (Homo sapiens (Human), UniProt O60674)
Measurement notes: Inhibition test on JAK-2 kinase (FRET peptide substrate assay)
Assay type: biochemical
Test context: kinase 1 nM, 1 h at room temperature
Entry format: amount then unit.

Some compounds with known IC50 results, for comparison:
QUERY: Item C=CC(=O)Nc1cccc(Cn2ncc3cnc(Nc4cnn(CCO)c4)nc32)c1 [Example 3] has what recorded IC50?
RESULT: 4220 nM

QUERY: Item C=CC(=O)Nc1ccc(Cn2ncc3cnc(Nc4cnn(CCO)c4)nc32)cc1 [Example 17] has what recorded IC50?
RESULT: 846 nM

QUERY: Item C/C=C/C(=O)Nc1ccc(Cn2ncc3cnc(Nc4ccc(N5CCOCC5)cc4)nc32)cc1 [Example 27] has what recorded IC50?
RESULT: 893 nM

New cases:
QUERY: Item C/C=C/C(=O)Nc1ccc(Cn2ncc3cnc(Nc4cnn(C)c4)nc32)cc1 [Example 23] has what recorded IC50?
RESULT: 697 nM

QUERY: Item C/C=C/C(=O)Nc1cccc(Cn2ncc3cnc(Nc4ccc(N5CCN(C)CC5)cc4)nc32)c1 [Example 14] has what recorded IC50?
RESULT: 1310 nM

QUERY: Item C=CC(=O)Nc1cccc(Cn2ncc3cnc(Nc4ccccc4)nc32)c1 [Example 4] has what recorded IC50?
RESULT: 1120 nM

QUERY: Item C/C=C/C(=O)Nc1cccc(Cn2ncc3cnc(Nc4cnn(CCOC)c4)nc32)c1 [Example 8] has what recorded IC50?
RESULT: 610 nM

QUERY: Item C=CC(=O)Nc1ccc(Cn2ncc3cnc(Nc4cnn(C)c4)nc32)cc1 [Example 16] has what recorded IC50?
RESULT: 770 nM

QUERY: Item C=CC(=O)Nc1cccc(Cn2ncc3cnc(Nc4ccc(N5CCN(C)CC5)cc4)nc32)c1 [Example 7] has what recorded IC50?
RESULT: 1080 nM

QUERY: Item C/C=C/C(=O)Nc1ccc(Cn2ncc3cnc(Nc4ccc(N5CCN(C)CC5)cc4)nc32)cc1 [Example 28] has what recorded IC50?
RESULT: 790 nM

---

Tgt: JAK-2 (Homo sapiens (Human), UniProt O60674)
Measurement notes: Inhibition test on JAK-2 kinase (FRET peptide substrate assay)
Type: biochemical
Test context: kinase 1 nM, 1 h at room temperature
Listed below: IC50 values for each entry.
Value expressed in nM; do not type the unit.

Some compounds with known IC50 results, for comparison:
QUERY: Item `C=CC(=O)Nc1cccc(Cn2ncc3cnc(Nc4cnn(C)c4)nc32)c1` has what recorded IC50?
RESULT: 941

QUERY: Item `C=CC(=O)Nc1ccc(Cn2ncc3cnc(Nc4cnn(CCOC)c4)nc32)cc1` has what recorded IC50?
RESULT: 602

QUERY: Item `C/C=C/C(=O)Nc1cccc(Cn2ncc3cnc(Nc4ccc(N5CCOCC5)cc4)nc32)c1` has what recorded IC50?
RESULT: 710

QUERY: Item `C/C=C/C(=O)Nc1cccc(Cn2ncc3cnc(Nc4cnn(C)c4)nc32)c1` has what recorded IC50?
RESULT: 860

QUERY: Item `C=CC(=O)Nc1ccc(Cn2ncc3cnc(Nc4ccc(F)cc4)nc32)cc1` has what recorded IC50?
RESULT: 1800

QUERY: Item `C/C=C/C(=O)Nc1ccc(Cn2ncc3cnc(Nc4cnn(CCO)c4)nc32)cc1` has what recorded IC50?
RESULT: 948

# context switch: different compound, same IC50
QUERY: Item `C/C=C/C(=O)Nc1cccc(Cn2ncc3cnc(Nc4ccccc4)nc32)c1` has what recorded IC50?
RESULT: 690
